Where these numbers come from: patent EP1203585A1

Test details: acute toxicity (LD50)
Design: species or system rats
Test context: rat, in vivo, po, rats (males and females), administered perorally
Endpoint name: LD50 (mg/kg)

{"columns": ["Molecule", "Unit", "Observed result"],
 "data": [
  ["NC(=O)CN1CC(c2ccccc2)CC1=O (stereo not shown) [PhP]", "mg/kg", 2460]
]}

====

Test details: acute toxicity (LD50)
Design: species or system rats
Test context: rat, in vivo, ip, rats, females, administered intraperitoneally

{"columns": ["Compound", "Unit", "LD50"],
 "data": [
  ["NC(=O)CN1CC(c2ccccc2)CC1=O (stereo not shown)", "mg/kg", 522]
]}
